test: Pharmacokinetics in mouse (oral / intravenous); assay type: in vivo; conditions: mouse, in vivo; female CD1 mice; read-out: Vd ss
quantityKind: Vd
Put down the number, then write its unit next to it.

1. CC1(N)CCN(c2cnc(-c3cccc(Cl)c3Cl)c(N)n2)CC1 [SHP-099, reference compound]    5 L/kg

# input for lookup
Vd recorded for this molecule, Cc1nc(N2CCC3(CC2)CO[C@@H](C)[C@H]3N)c(CO)nc1-c1cccc(Cl)c1Cl [RMC-4550, reference compound] , is 6.1 L/kg

###

biological target: Full length SHP2 protein (Recombinant Human SHP-2) (Homo sapiens (Human), UniProt Q06124); assay: SHP2 biochemical assay (DiFMUP substrate, activating peptide IRSI_2pY); settings: activating peptide IRSI_2pY 140 nM, DiFMUP, 60 min; read-out: SHP-2 biochemical assay IC50
Sequence (Q06124 2-593): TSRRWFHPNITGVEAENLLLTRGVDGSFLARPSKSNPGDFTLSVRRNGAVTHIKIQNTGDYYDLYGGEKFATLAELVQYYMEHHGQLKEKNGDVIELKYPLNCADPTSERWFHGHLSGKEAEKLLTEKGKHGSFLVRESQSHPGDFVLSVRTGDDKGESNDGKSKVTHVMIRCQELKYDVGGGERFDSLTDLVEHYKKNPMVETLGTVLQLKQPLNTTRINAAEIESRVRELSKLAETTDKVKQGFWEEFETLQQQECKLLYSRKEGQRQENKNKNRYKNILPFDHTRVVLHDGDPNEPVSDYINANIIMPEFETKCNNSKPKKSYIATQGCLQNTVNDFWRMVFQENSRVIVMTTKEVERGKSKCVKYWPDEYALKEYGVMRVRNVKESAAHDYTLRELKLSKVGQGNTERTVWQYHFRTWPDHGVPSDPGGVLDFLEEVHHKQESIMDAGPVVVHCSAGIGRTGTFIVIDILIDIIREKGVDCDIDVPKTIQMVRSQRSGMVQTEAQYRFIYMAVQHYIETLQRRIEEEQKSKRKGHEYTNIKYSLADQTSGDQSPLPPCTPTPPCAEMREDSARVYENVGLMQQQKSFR
quantityKind: IC50
Answer format reminder: number followed by unit.

1. Cc1nc(N2CCC3(CC2)CO[C@@H](C)[C@H]3N)nc(=O)n1-c1cccc(Cl)c1Cl (single isomer, unassigned) [Compound 37a]    1100 nM
2. Cc1c(N2CCC3(CC2)Oc2cnccc2[C@@H]3N)nc(C)n(-c2cccc(Cl)c2Cl)c1=O (single isomer, unassigned) [Compound 80d]    1400 nM
3. Cc1c(N2CCC3(CC2)CC3N)nc(C)n(-c2cccc(Cl)c2Cl)c1=O (stereo not shown)    1300 nM

Item: Cc1c(N2CCCC(C)(CN)CC2)nc(C)n(-c2cccc(Cl)c2Cl)c1=O (stereo not shown) | IC50: 1200 nM

###

target: Full length SHP2 protein (Recombinant Human SHP-2) (Homo sapiens (Human), UniProt Q06124); assay: SHP2 biochemical assay (DiFMUP substrate, activating peptide IRSI_2pY); conditions: activating peptide IRSI_2pY 140 nM, DiFMUP, 60 min; read-out: SHP-2 biochemical assay IC50
For each of the compounds below, state its IC50.
One number for each entry, in nM.

1. Cc1nc(N2CCC3(CCC[C@H]3N)CC2)cc(=O)n1-c1cccc(Cl)c1Cl [Compound 27]    51
2. Cc1c(N2CCC3(CC2)Cc2ccccc2[C@H]3N)nc(C)n(-c2cccc(Br)c2Cl)c1=O    5
3. Cc1nc(N2CCC(NC[C@@H](O)CO)CC2)cc(=O)n1-c1cccc(Cl)c1Cl    2500
4. Cc1nc(N2CCC(C)(CN)CC2)cc(=O)n1-c1c(F)ccc(Cl)c1Cl (single isomer, unassigned) [Compound 33b]    5700
5. CC1(N)CCN(c2cc(=O)n(-c3cccc(Cl)c3Cl)c(C(F)F)n2)CC1    3800

Batch request: IC50 for each of the following compounds.
1. Cc1c(N2CCC(C)(CN)CC2)nc(C)n(-c2cccc(Cl)c2Cl)c1=O
2. Cc1c(N2CCC3(CC2)Cc2ncccc2[C@H]3N)nc(C)n(-c2cccc(Cl)c2Cl)c1=O (single isomer, unassigned) [Compound 66a]
3. Cc1c(N2CCC3(CC2)CO[C@@H](C)[C@H]3N)nc(C)n(-c2cccc(F)c2Cl)c1=O

1: 370; 2: 73; 3: 150

###

molecular target: Full length SHP2 protein (Recombinant Human SHP-2) (Homo sapiens (Human), UniProt Q06124); test: SHP2 biochemical assay (DiFMUP substrate, activating peptide IRSI_2pY); settings: activating peptide IRSI_2pY 140 nM, DiFMUP, 60 min; read-out: SHP-2 biochemical assay IC50
quantityKind: IC50

Please review the entries below; each comes with its answer.
1) Cc1nc(N2CCC3(CC2)CO[C@@H](C)[C@H]3N)c(C(C)C)c(=O)n1-c1cccc(Cl)c1Cl (atropisomer, axis not shown) [Compound 49a]    > 10 µM
2) Cc1c(N2CCC3(CCC[C@@H]3N)CC2)nc(N)n(-c2cccc(Cl)c2Cl)c1=O (single isomer, unassigned) [Compound 78a]    > 50 µM
3) Cc1nc(N2CCC(C)(CN)CC2)cc(=O)n1-c1c(F)ccc(Cl)c1Cl (single isomer, unassigned) [Compound 33a]    > 10 µM
4) Cc1nc(N2CCN3C(=O)C(N)CC3C2)cc(=O)n1-c1cccc(Cl)c1Cl (centres unmarked) [Compound 61]    > 10 µM

Consider Cc1nc(N2CCC3(CC2)CO[C@@H](C)[C@H]3N)cc(=O)n1-c1c(F)ccc(Cl)c1Cl (single isomer, unassigned) [Compound 32a] . Its measured IC50 is > 10 µM
